target-system: UniProt Q9Y4P1
Sequence (Q9Y4P1 whole entry): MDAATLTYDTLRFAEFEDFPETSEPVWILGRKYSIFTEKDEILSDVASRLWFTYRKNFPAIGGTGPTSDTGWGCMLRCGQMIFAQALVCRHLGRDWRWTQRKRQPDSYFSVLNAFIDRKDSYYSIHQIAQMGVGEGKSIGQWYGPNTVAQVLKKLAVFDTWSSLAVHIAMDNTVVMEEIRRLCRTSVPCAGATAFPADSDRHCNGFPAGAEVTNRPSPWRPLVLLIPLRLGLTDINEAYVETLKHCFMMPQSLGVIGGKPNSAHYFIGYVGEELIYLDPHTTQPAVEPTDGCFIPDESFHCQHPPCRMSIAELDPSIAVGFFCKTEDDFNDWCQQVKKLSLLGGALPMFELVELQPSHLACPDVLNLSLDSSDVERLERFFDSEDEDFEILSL
Format: functional
Calls of active or inactive are those of the source.
Lab note: assign the record to one of active, inactive

Called result for `CC(C)COC(=O)c1ccc(N2C(=O)c3ccccc3C2=O)cc1` active

Called result for `CCC(=O)NC(=S)Nc1cccc(Cl)c1N1CCCCC1` active

Called result for CC(C)Oc1ccc(C(CC(=O)NCc2ccco2)c2ccccc2)cc1 (centres undefined) active

Called result for `CC1(C)Cc2c(sc(NC(=S)NC(=O)c3ccccc3)c2C(=O)O)CO1` inactive

---

System: H4
run-description: Luminescence Cell-Based Dose Response HTS to Identify Activators of 5'UTR Stem-Loop Driven Prion Protein mRNA Translation in H4 Neuroglioblastoma Cells. [Related pubchem assays: 1829 (Project Summary), 1814 (Primary HTS)]
Format: functional
assay-conditions: Homo sapiens
The source made the active and inactive calls.
So I've got a bunch of compounds here, and I need their EC50 values.

Return EC50 (reported value) for this compound: `Clc1ccc2sc(C3CCNCC3)nc2c1` 0.168 µM (active)

Return EC50 (reported value) for this compound: `Clc1ccc(/C=N/Nc2ncnc3ccccc23)cc1Cl` 7.13 µM (active)

Return EC50 (reported value) for this compound: `Cc1nn(-c2ccccc2)c2sc(C(=O)NC3CC3)cc12` 27.9 µM (active)

Return EC50 (reported value) for this compound: `Cc1nnc(SCC(=O)NC(=O)Nc2ccc3c(c2)OCCO3)n1N` > 120 µM (not active)

Return EC50 (reported value) for this compound: `O=C(Cn1cc(C(F)(F)F)cc(Cl)c1=O)NCc1ccccc1` 18.5 µM (active)

Return EC50 (reported value) for this compound: `CC(C)(C)c1cc(NC(=O)Nc2ccccc2)no1` > 120 µM (not active)

---

target-system: Ubiquitin-conjugating enzyme E2 N (Homo sapiens);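 note: Dose-response confirmation in a TR-FRET assay detecting UBC13-driven polyubiquitin chain formation, inhibition measured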
Sequence (P61088 whole entry): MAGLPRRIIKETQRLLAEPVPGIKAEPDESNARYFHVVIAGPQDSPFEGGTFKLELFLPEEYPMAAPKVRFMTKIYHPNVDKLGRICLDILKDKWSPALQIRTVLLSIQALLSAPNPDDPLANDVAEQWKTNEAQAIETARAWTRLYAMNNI
Type: functional
Active and inactive are the calls of the source.
measured-metric: IC50

Return IC50 (reported value) for this compound: `CC(C)C[C@H](NC(=O)c1[nH]cnc1C(=O)N[C@@H](CCCCN)C(=O)OC(C)(C)C)C(=O)OC(C)(C)C` > 20 µM (inactive)

Return IC50 (reported value) for this compound: `OCCNc1nc(Nc2cc(Cl)ccc2OC2CCCC2)nc(N2CCCC2)n1` > 20 µM (inactive)

Return IC50 (reported value) for this compound: `CC(C)Oc1ccc(Cl)cc1Nc1nc(NCCO)nc(N2CCCC2)n1` > 20 µM (inactive)

---

target-system: High affinity choline transporter 1 (Homo sapiens)
Sequence (Q9GZV3 whole entry): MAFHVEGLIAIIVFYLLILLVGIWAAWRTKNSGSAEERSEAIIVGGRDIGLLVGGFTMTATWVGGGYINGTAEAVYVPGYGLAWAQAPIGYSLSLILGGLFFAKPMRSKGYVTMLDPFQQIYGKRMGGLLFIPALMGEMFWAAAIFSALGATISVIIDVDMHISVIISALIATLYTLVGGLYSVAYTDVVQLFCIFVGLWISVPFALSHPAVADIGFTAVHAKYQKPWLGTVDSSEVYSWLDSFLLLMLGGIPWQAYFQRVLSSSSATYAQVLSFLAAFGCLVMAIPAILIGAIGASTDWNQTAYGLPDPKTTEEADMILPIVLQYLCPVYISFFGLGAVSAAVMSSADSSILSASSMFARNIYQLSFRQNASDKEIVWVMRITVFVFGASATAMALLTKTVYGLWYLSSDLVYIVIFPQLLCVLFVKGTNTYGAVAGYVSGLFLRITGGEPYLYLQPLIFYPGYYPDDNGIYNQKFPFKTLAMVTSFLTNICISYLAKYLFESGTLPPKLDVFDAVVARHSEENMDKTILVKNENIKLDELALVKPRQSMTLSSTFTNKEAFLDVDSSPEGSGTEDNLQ
run-description: CHT inhibitors, dose response, cell-based, 5-point CRC, membrane potential dye (AID 504840)
Assay type: functional
The source made the active and inactive calls.
So I've got a bunch of compounds here, and I need their IC50 values.

Return IC50 (reported value) for this compound: `CCN(CC)CCCn1c2c(c(SCC(=O)Nc3ccc(OC(F)(F)F)cc3)nc1=O)CCC2` 7.92 µM (active)

Return IC50 (reported value) for this compound: CCOC(=O)C1=C(COC(=O)c2ccc(OC(C)C)cc2)NC(=O)NC1C (stereo unspecified) 16.6 µM (active)

Return IC50 (reported value) for this compound: `CCc1c(C)nc2ccccc2c1O` 13.2 µM (active)

Return IC50 (reported value) for this compound: `Cc1cccc(C(=O)NC(=S)NNC(=O)Cc2ccccc2)c1` 13.2 µM (active)

Return IC50 (reported value) for this compound: O=C(NN=C(S)Nc1ccc(F)cc1)C1CC1c1ccc(Cl)cc1 (stereo unspecified) 13.2 µM (active)

Return IC50 (reported value) for this compound: Cc1ccc(C[S+]([O-])Cc2ccc(C(=O)NC3CCCCCC3)o2)cc1 (stereo unspecified) 14.5 µM (active)

// data source = ChEMBL document CHEMBL1201862
